Target: SIX1-Q177R homeodomain (human, UniProt Q15475 108-198, Q177R)
Sequence: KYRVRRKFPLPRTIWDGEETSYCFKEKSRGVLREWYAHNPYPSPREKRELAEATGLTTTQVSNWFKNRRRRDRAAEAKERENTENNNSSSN
Test: universal protein binding microarray; Universal all-10-mer PBM (8x60K, AMADID 030236), 300 nM GST-tagged protein, Alexa Fluor 488 anti-GST; buffer, salt, pH and temperature not stated (as in Berger); high values mean tight binding
Conditions: protein: ivt; tags: N-terminal GST; dsDNA, one strand shown
Over roughly 33,000 sequences, “e-score” has its median near -0.05; the highest 2% begin near 0.38. The entries come from a sample that favours the highest values as a whole.
Could you please report measured binding signal for the items listed next?
Reply numerically in E-score, unit not repeated.

Which binding signal value belongs to ACCACCGC ?
0.199

Which binding signal value belongs to CACGTATA ?
0.21

Which binding signal value belongs to GCACTATA ?
0.191

Which binding signal value belongs to CCCCGCCG ?
0.241

Which binding signal value belongs to ACTGACCC ?
0.213

Which binding signal value belongs to CACCCGGC ?
0.36

Which binding signal value belongs to AGTGTAGA ?
0.369

Which binding signal value belongs to AAGTACAC ?
0.425

Which binding signal value belongs to CTCTTACA ?
0.183

Which binding signal value belongs to AAGTACCC ?
0.205

Which binding signal value belongs to AGAGTGTC ?
0.412

Which binding signal value belongs to CTAGGACA ?
0.162

Which binding signal value belongs to ACTCCCCT ?
0.249

Which binding signal value belongs to CAAGTGTC ?
0.379

Which binding signal value belongs to TGTCGGAA ?
0.233

Which binding signal value belongs to GCGACCCC ?
0.212

Which binding signal value belongs to ACACGGTG ?
0.438

Which binding signal value belongs to ACCCCCTA ?
0.337

Which binding signal value belongs to CAAGGGTG ?
0.252

Which binding signal value belongs to AAGTAATC ?
0.163

Which binding signal value belongs to CCATAACA ?
0.214

Which binding signal value belongs to GGGTTACA ?
0.242

Which binding signal value belongs to TCCATGGA ?
0.16

Which binding signal value belongs to GCAGCACC ?
0.219

Which binding signal value belongs to GCACGGTA ?
0.165

Which binding signal value belongs to AGTGTGTC ?
0.283

Which binding signal value belongs to CACCAATA ?
0.276

Which binding signal value belongs to AGGGATCC ?
0.212

Which binding signal value belongs to AGTGTGGG ?
0.192

Which binding signal value belongs to ACTGACAA ?
0.153

Which binding signal value belongs to AGCACCGC ?
0.288

Which binding signal value belongs to CAATAGGG ?
0.2

Which binding signal value belongs to CTCCCGCA ?
0.155

Which binding signal value belongs to TACTAACA ?
0.185

Which binding signal value belongs to AAAGTGTT ?
0.285

Which binding signal value belongs to GCACCCCA ?
0.257

Which binding signal value belongs to CAAGTGTA ?
0.392

Which binding signal value belongs to CACGAGTG ?
0.317

Which binding signal value belongs to CACACCGA ?
0.405

Which binding signal value belongs to CACGCGAC ?
0.26

Which binding signal value belongs to CAGTACCG ?
0.185

Which binding signal value belongs to CCTGACAC ?
0.452

Which binding signal value belongs to CGAATGAC ?
0.198

Which binding signal value belongs to AACTAACA ?
0.242

Which binding signal value belongs to CACGAGCA ?
0.242

Which binding signal value belongs to ATACCCCA ?
0.254

Which binding signal value belongs to ACCCGGGC ?
0.199

Which binding signal value belongs to ACGACTCC ?
0.309

Which binding signal value belongs to CCAGGATC ?
0.193

Which binding signal value belongs to CCCTGCAG ?
0.185

Which binding signal value belongs to CCTGACCC ?
0.159

Which binding signal value belongs to GAGTACTC ?
0.174

Which binding signal value belongs to GGGTGATA ?
0.218

Entry source: paper PMC10668032
